- EXPERIMENTAL TARGET: ARF (Homo sapiens)
- Construct: endogenous in cells
- Sequence (P62330 2-175): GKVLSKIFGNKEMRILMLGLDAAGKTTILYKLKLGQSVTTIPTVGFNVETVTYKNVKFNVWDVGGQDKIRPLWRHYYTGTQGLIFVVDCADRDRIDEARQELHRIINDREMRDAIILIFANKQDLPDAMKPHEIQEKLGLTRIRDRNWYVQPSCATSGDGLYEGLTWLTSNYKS
- ASSAY DETAILS: ARF BRET sensor (GGA3-PBD-RlucII / rGFP-CAAX), AT1R-mediated
- EXPERIMENTAL CONDITIONS: AT1R; dose-response
TEST READOUT: IC50 (µM)

SMILES NOTATION | TEST READOUT | REPORTED
CC(C)C(=O)N1CCN(c2ccc(NC(=O)c3cc4ccccc4o3)cc2Cl)CC1 | IC50 | 7

====

- ASSAY DETAILS: Maximal solubility concentration
- Format: physicochemical
- EXPERIMENTAL CONDITIONS: DMSO, organic solvent or mixture; read-out: maximum solubility concentration in DMSO
TEST READOUT: solubility

COMPOUND | REPORTED
CC(C)C(=O)N1CCN(c2ccc(NC(=O)c3cc4ccccc4o3)cc2Cl)CC1 [Compound 21] | ~50 µM

====

- Test system: AT1R
- ASSAY DETAILS: Endosomal BRET assay of AngII-mediated AT1R internalization (AT1R-RlucII / Endo-rGFP; HTS, validation, concentration-response)
- Type: cell-based, human
- EXPERIMENTAL CONDITIONS: Homo sapiens; AngII; into endosomes; read-out: IC50 for inhibition of AT1R internalization
- Excerpt: We performed a HT campaign in HEK293 cells using the bystander endosomal BRET sensor, which consists of a Renilla luciferase (RlucII)-tagged AT1R and an acceptor renilla GFP (rGFP) anchored to endosomes through an Endofin-FYVE (Endo-rGFP) domain[12]. […] Because our assay is based on luminescence and fluorescence, we excluded 6610 compounds that quenched more than 50% of the luciferase or GFP signals. […] They were scored 1–5, from best to worst. […]

SMILES NOTATION | UNITS TEXT | IC50
CC(C)C(=O)N1CCN(c2ccc(NC(=O)c3cc4ccccc4o3)cc2Cl)CC1 | µM | 10
